Measured Ki, listed per entry for reference.
- TARGET_OR_SYSTEM: Adrenergic receptor alpha-1 (Rattus norvegicus, UniProt P15823+P23944+P43140)
- EXPERIMENT: Displacement of [3H]prazosin from rat cortex Alpha-1 adrenergic receptor
Include the unit after the number when you answer.

[
  {
    "MOLECULE": "COc1cc(C)cc2c1CCC1(CN=CN1)C2 (centres undefined)",
    "Ki": "600 nM"
  },
  {
    "MOLECULE": "COc1cccc2c1CC1(CC2)CN=CN1 (centres undefined)",
    "Ki": "16000 nM"
  },
  {
    "MOLECULE": "COc1cccc2c1CCC1(CN=CN1)C2 (centres undefined)",
    "Ki": "3400 nM"
  }
]

Attention now turns to another entry.
Reported Ki, molecule Clc1cc(Cl)c2c(c1)CC1(CC2)CN=CN1 (centres undefined) : ____
700 nM
